Measured MIC by item
test system: Micrococcus luteus; test: Antibacterial activity against Micrococcus luteus after 48 hrs by broth micro-dilution method; type: functional
*1 amine or outer side, *2 acyl side, *3 side chain or, on linkers, in order; H or OH if unused. Where a SMILES comes first, the peptide text is derived from it. Bridges are numbered along the chain shown (N, C = ends). [ ]: non-standard residue; d: D form. The star is where a group is joined. hTyr(3S-OH,4S-OH,3'-OSO3H) = N[C@H](C(=O)O)[C@H](O)[C@@H](O)c1ccc(O)c(OS(=O)(=O)O)c1; Orn(4R-OH,5R-OH) = O=C([C@H](C[C@@H](O)[C@@H](O)N[*:3])N[*:1])[*:2]; Pro(3S-OH,4S-Me) = C[C@H]1CN[C@H](C(=O)O)[C@H]1O; X1 = CCCCCOc1ccc(-c2cc(-c3ccc(C(=O)*)cc3)no2)cc1; Gln(3R-OH) = NC(=O)C[C@@H](O)[C@H](N)C(=O)O; Hyp = O=C(O)[C@@H]1C[C@@H](O)CN1

# molecule, limitSign, MIC [µg/mL]
rows = [
    ("Cc1cccc(O)c1C(=O)O[C@@H]1[C@@H](O)[C@H](O)[C@@H](NC(=O)c2cccc(O)c2)C[C@H]1OC(N)=O", ">", 32),
    ("Cc1cccc(O)c1C(=O)O[C@H]1[C@H](O)[C@@H](O)[C@H](OC(N)=O)C[C@@H]1NC(=O)c1cccc(O)c1", ">", 32),
    ("CCCCCOc1ccc(-c2cc(-c3ccc(C(=O)N[C@H]4C[C@@H](O)[C@@H](O)NC(=O)[C@@H]5[C@@H](O)[C@@H](C)CN5C(=O)[C@H]([C@H](O)CC(N)=O)NC(=O)[C@H]([C@H](O)[C@@H](O)c5ccc(O)c(OS(=O)(=O)O)c5)NC(=O)[C@@H]5C[C@@H](O)CN5C(=O)[C@H]([C@@H](C)O)NC4=O)cc3)no2)cc1 [MICAFUNGIN] (X1-[Orn(4R-OH,5R-OH)]T[Hyp][hTyr(3S-OH,4S-OH,3'-OSO3H)][Gln(3R-OH)][Pro(3S-OH,4S-Me)]; lactam 1-C)", "=", 7.8),
    ("NC[C@H]1O[C@H](O[C@H]2[C@H](O)[C@@H](O[C@H]3O[C@H](CO)[C@@H](O)[C@H](N)[C@H]3O)[C@H](N)C[C@@H]2N)[C@H](O)[C@@H](O)[C@@H]1O", "=", 1),
    ("C[C@@H]1[C@H](O)[C@@H](C)/C=C/C=C/C=C/C=C/C=C/C=C/C=C/[C@H](O[C@@H]2O[C@H](C)[C@@H](O)[C@H](N)[C@@H]2O)C[C@@H]2O[C@](O)(C[C@@H](O)C[C@@H](O)[C@H](O)CC[C@@H](O)C[C@@H](O)CC(=O)O[C@H]1C)C[C@H](O)[C@H]2C(=O)O", ">", 31.2),
    ("CN[C@H]1C[C@@H](N)[C@H](O)[C@@H](O[C@@H]2O[C@H](CO)[C@H](O)[C@@H]3O[C@@]4(O[C@H]23)O[C@H]([C@@H](N)CO)[C@H](O)[C@H](O)[C@H]4O)[C@@H]1O", "=", 1),
]

---

system: Cryptococcus neoformans; test: Antifungal activity against Cryptococcus neoformans after 96 hrs by broth micro-dilution method; format: functional
*1 amine or outer side, *2 acyl side, *3 side chain or, on linkers, in order; H or OH if unused. Where a SMILES comes first, the peptide text is derived from it. Bridges are numbered along the chain shown (N, C = ends). [ ]: non-standard residue; d: D form. The star is where a group is joined. hTyr(3S-OH,4S-OH,3'-OSO3H) = N[C@H](C(=O)O)[C@H](O)[C@@H](O)c1ccc(O)c(OS(=O)(=O)O)c1; Orn(4R-OH,5R-OH) = O=C([C@H](C[C@@H](O)[C@@H](O)N[*:3])N[*:1])[*:2]; Pro(3S-OH,4S-Me) = C[C@H]1CN[C@H](C(=O)O)[C@H]1O; X1 = CCCCCOc1ccc(-c2cc(-c3ccc(C(=O)*)cc3)no2)cc1; Gln(3R-OH) = NC(=O)C[C@@H](O)[C@H](N)C(=O)O; Hyp = O=C(O)[C@@H]1C[C@@H](O)CN1
Measured IC50 by item

# compound, limitSign, IC50 [µg/mL]
records = [
    ("Cc1cccc(O)c1C(=O)O[C@@H]1[C@@H](O)[C@H](O)[C@@H](NC(=O)c2cccc(O)c2)C[C@H]1OC(N)=O", "=", 32),
    ("CN[C@H]1C[C@@H](N)[C@H](O)[C@@H](O[C@@H]2O[C@H](CO)[C@H](O)[C@@H]3O[C@@]4(O[C@H]23)O[C@H]([C@@H](N)CO)[C@H](O)[C@H](O)[C@H]4O)[C@@H]1O", "=", 3.9),
    ("Cc1cccc(O)c1C(=O)O[C@H]1[C@H](O)[C@@H](O)[C@H](OC(N)=O)C[C@@H]1NC(=O)c1cccc(O)c1", "=", 16),
    ("C[C@@H]1[C@H](O)[C@@H](C)/C=C/C=C/C=C/C=C/C=C/C=C/C=C/[C@H](O[C@@H]2O[C@H](C)[C@@H](O)[C@H](N)[C@@H]2O)C[C@@H]2O[C@](O)(C[C@@H](O)C[C@@H](O)[C@H](O)CC[C@@H](O)C[C@@H](O)CC(=O)O[C@H]1C)C[C@H](O)[C@H]2C(=O)O", "<", 0.05),
    ("NC[C@H]1O[C@H](O[C@H]2[C@H](O)[C@@H](O[C@H]3O[C@H](CO)[C@@H](O)[C@H](N)[C@H]3O)[C@H](N)C[C@@H]2N)[C@H](O)[C@@H](O)[C@@H]1O", "=", 7.8),
    ("CCCCCOc1ccc(-c2cc(-c3ccc(C(=O)N[C@H]4C[C@@H](O)[C@@H](O)NC(=O)[C@@H]5[C@@H](O)[C@@H](C)CN5C(=O)[C@H]([C@H](O)CC(N)=O)NC(=O)[C@H]([C@H](O)[C@@H](O)c5ccc(O)c(OS(=O)(=O)O)c5)NC(=O)[C@@H]5C[C@@H](O)CN5C(=O)[C@H]([C@@H](C)O)NC4=O)cc3)no2)cc1 [MICAFUNGIN] (X1-[Orn(4R-OH,5R-OH)]T[Hyp][hTyr(3S-OH,4S-OH,3'-OSO3H)][Gln(3R-OH)][Pro(3S-OH,4S-Me)]; lactam 1-C)", "<", 0.1),
]
